# Tested on: Bacillus cereus
# TEST NAME: Antibacterial activity against Bacillus cereus by CLSI protocol based method
# Type: functional
Active and inactive are the calls of the source. No cut-off for these calls is given here.
MEASURED QUANTITY: MIC

>>> recorded_value("C=CC(C)(C)c1cc(-c2coc3cc4c(c(OC)c3c2=O)C=CC(C)(C)O4)c(O)cc1O")
"8 µg/mL"
>>> recorded_value("COc1c2c(cc3occ(-c4ccc(OCC=C(C)C)cc4O)c(=O)c13)OC(C)(C)C=C2")
"inactive"
>>> recorded_value("CC(C)=CCc1c(O)c(CC=C(C)C)c2occ(-c3ccc(O)c(O)c3)c(=O)c2c1O")
"16 µg/mL"
>>> recorded_value("COc1c2c(cc3occ(-c4ccc(OCC=C(C)C)c(O)c4)c(=O)c13)OC(C)(C)C=C2")
"inactive"
>>> recorded_value("CC(C)=CCc1c2c(c(O)c3c(=O)c4c(oc5cc(O)ccc54)oc13)C=CC(C)(C)O2")
"128 µg/mL"
>>> recorded_value("COc1c2c(cc3c1C(=O)[C@]1(O)c4ccc(OCC=C(C)C)cc4O[C@@H]1O3)OC(C)(C)C=C2")
"32 µg/mL"

# batch: return MIC for each of the 7 compounds below
1. CN[C@H](CC(C)C)C(=O)N[C@H]1C(=O)N[C@@H](CC(N)=O)C(=O)N[C@H]2C(=O)N[C@H]3C(=O)N[C@H](C(=O)N[C@H](C(=O)O)c4cc(O)cc(O)c4-c4cc3ccc4O)[C@H](O)c3ccc(c(Cl)c3)Oc3cc2cc(c3O[C@@H]2O[C@H](CO)[C@@H](O)[C@H](O)[C@H]2O[C@H]2C[C@](C)(N)[C@H](O)[C@H](C)O2)Oc2ccc(cc2Cl)[C@H]1O [VANCOMYCIN]
2. COc1cc(-c2coc3cc4c(c(O)c3c2=O)C=CC(C)(C)O4)c(OC)cc1OCC=C(C)C
3. C=CC(C)(C)c1cc(-c2coc3cc4c(c(O)c3c2=O)C=CC(C)(C)O4)ccc1O
4. CC(C)=CCC1=C(O)c2c(occ(-c3ccc(O)c(O)c3)c2=O)C(CC=C(C)C)(CC=C(C)C)C1=O
5. CC(C)=CCOc1ccc2c(c1)O[C@@H]1Oc3cc4c(c(O)c3C(=O)[C@]21O)C=CC(C)(C)O4
6. CC(C)=CCOc1ccc(-c2coc3cc(OCC=C(C)C)cc(O)c3c2=O)cc1
7. COc1cc(O)c2c(=O)c(-c3ccc(OCC=C(C)C)cc3)coc2c1

Output:
0.125 µg/mL
inactive
64 µg/mL
32 µg/mL
32 µg/mL
inactive
inactive
